System: HeLa
Assay: MTT cytotoxicity assay, HeLa
Assay type: cell-based, human
Conditions: 48 h, mean ± SD
recorded_metric: pIC50
Give bare numbers, as −log10 of the molar value.

Value lookup for pIC50; key = COc1cccc(NC(=S)NC(=O)[C@@H](C)c2ccc3cc(OC)ccc3c2)c1
4.00

* * *

What Relative organ weight, Stomach was measured for each of the following?
System: healthy male rats
Experiment: Acute oral toxicity assessment (OECD Guidelines No. 423)
Format: in vivo, rat
Conditions: single per os dose 10 mg/kg, sacrifice after 14 days, (absolute organ weight × 100%)/body weight
Give bare numbers.

* COc1ccc2cc([C@H](C)C(=O)NC(=S)Nc3ccccc3)ccc2c1 | 0.51

Give Relative organ weight, Stomach for each of the items listed below.
1. COC(=O)[C@H](Cc1ccccc1)NC(=S)NC(=O)[C@@H](C)c1ccc2cc(OC)ccc2c1
2. COc1ccc2cc([C@H](C)C(=O)NC(=S)Nc3ccccc3F)ccc2c1
3. COC(=O)[C@H](Cc1c[nH]c2ccccc12)NC(=S)NC(=O)[C@@H](C)c1ccc2cc(OC)ccc2c1
4. COc1ccc2cc([C@H](C)C(=O)NC(=S)Nc3ccccc3C)ccc2c1

0.50
0.59
0.53
0.58

Parameter requested: Relative organ weight, Stomach. Apply to each item below.
1. COc1ccc2cc([C@H](C)C(=O)NC(=S)Nc3ccccc3OC)ccc2c1
2. COc1ccc2cc([C@H](C)C(=O)NC(=S)Nc3ccc(C)cc3)ccc2c1

[0.54, 0.56]

* * *

Test system: carrageenan-induced rat paw edema
Experiment: Carrageenan-induced rat paw edema model
Format: in vivo
Settings: 2.5 mg/kg, 2 h after carrageenan; mean ± SD
recorded_metric: Rat Paw Thickness (mm)
Numbers only, in mm.

Some solved cases for reference:
* COc1ccc2cc([C@H](C)C(=O)NC(=S)Nc3ccccc3OC)ccc2c1 | 6.97
* COc1ccc2cc([C@H](C)C(=O)NC(=S)Nc3ccccc3F)ccc2c1 | 6.43
* COc1ccc2cc([C@H](C)C(=O)NC(=S)Nc3ccccc3C)ccc2c1 | 6.07
* COC(=O)[C@H](Cc1c[nH]c2ccccc12)NC(=S)NC(=O)[C@@H](C)c1ccc2cc(OC)ccc2c1 | 6.23
* COc1ccc2cc([C@H](C)C(=O)O)ccc2c1 | 6.02

Provide Rat Paw Thickness values for the following items, in order.
1. COC(=O)[C@H](Cc1ccccc1)NC(=S)NC(=O)[C@@H](C)c1ccc2cc(OC)ccc2c1
2. COc1ccc2cc([C@H](C)C(=O)NC(=S)Nc3ccc(C)cc3)ccc2c1
3. COc1ccc2cc([C@H](C)C(=O)NC(=S)Nc3ccccc3)ccc2c1

1: 6.60; 2: 6.33; 3: 5.43

* * *

System: healthy male rats
Assay: Acute oral toxicity assessment (OECD Guidelines No. 423)
Format: in vivo, rat
Settings: single per os dose 10 mg/kg, sacrifice after 14 days, (absolute organ weight × 100%)/body weight
Rule: measured Relative organ weight, Kidney below 0.3 gets condition met; anything equal to or greater than 0.3 gets condition not met.

- COc1ccc2cc([C@H](C)C(=O)NC(=S)Nc3ccccc3)ccc2c1: condition not met
- COc1ccc2cc([C@H](C)C(=O)NC(=S)Nc3ccccc3F)ccc2c1: condition not met
- COC(=O)[C@H](Cc1c[nH]c2ccccc12)NC(=S)NC(=O)[C@@H](C)c1ccc2cc(OC)ccc2c1: condition met

Find out if reported Relative organ weight, Kidney for COc1ccc2cc([C@H](C)C(=O)NC(=S)Nc3ccccc3OC)ccc2c1 is less than 0.3
condition not met

# check: Relative organ weight, Kidney < 0.3 for COc1ccc2cc([C@H](C)C(=O)NC(=S)Nc3ccc(C)cc3)ccc2c1
condition met

Does the reported Relative organ weight, Kidney of the following compound sit strictly below 0.3? COC(=O)[C@H](Cc1ccccc1)NC(=S)NC(=O)[C@@H](C)c1ccc2cc(OC)ccc2c1
condition met

Item COc1ccc2cc([C@H](C)C(=O)NC(=S)Nc3ccccc3C)ccc2c1 : Relative organ weight, Kidney beneath 0.3, strictly?
condition not met
